# Lookup of reported TGI keyed by entry
- System: COLO 205 colon
- protocol-text: NCI tumour cell line growth inhibition, 48 h
*1 amine or outer side, *2 acyl side, *3 side chain or, on linkers, in order; H or OH if unused. Where a SMILES comes first, the peptide text is derived from it. Bridges are numbered along the chain shown (N, C = ends). [ ]: non-standard residue; d: D form. X59 = COc1c(N[*:1])cccc1C(=O)O[C@H](C(=O)[C@H](C)C(=O)[*:2])C(C)C; X58 = CC(C)C[C@H](C(=O)[*:2])C(C)C(=O)C1CCCN1[*:1]; NMeY = CN[C@@H](Cc1ccc(O)cc1)C(=O)O; Lac = C[C@H](O)C(=O)O
readout-name: TGI

molecule=CCNC1=C(NC(=O)c2ccc(OC)cc2)C(=O)c2ccccc2C1=O recorded_result="> 100 µM"
molecule=COc1cc(OC)c2nc(C)c3c(c2c1)OCC3 recorded_result="> 100 µM"
molecule=CCOC(=O)CON=c1c2ccccc2ccc2ccccc12 recorded_result="> 100 µM"
molecule=C=C(C)CCN(C(=O)OC(C)(C)C)c1cc(C(C)C)co1 recorded_result="> 100 µM"
molecule=CCCC(=O)O[C@]1(C)CC[C@@H]2[C@H]3[C@@H]1[C@@H]1C/C(C)=C\CC[C@](C)(OC(=O)[C@@H]2C)[C@H]3O1 recorded_result="> 100 µM"
molecule=OCc1ncc(-c2ccccc2)s1 recorded_result="> 100 µM"
molecule=CCOc1ccc(N=Nc2ccc(-c3ccc(N=Nc4c(O)ccc5cc(S(=O)(=O)O)cc(S(=O)(=O)O)c45)cc3)cc2)cc1 recorded_result="> 100 µM"
molecule=Cc1cccc2c(N=Nc3ccccc3[N+](=O)[O-])c(O)[nH]c12 recorded_result="> 63.5 µM"
molecule=COc1cc(O)c2c(=O)c(OC)c(-c3ccc(OC)c(OC)c3)oc2c1.[Zn+2] recorded_result="> 100 µM"
molecule="COc1ccc(C[C@H]2C(=O)O[C@H](C)[C@H](NC(=O)[C@@H](CC(C)C)C(C)C(=O)C3CCCN3C(=O)[C@H](C)O)C(=O)Nc3cccc(c3OC)C(=O)O[C@@H](C(C)C)C(=O)[C@H](C)C(=O)N[C@@H](CC(C)C)C(=O)N3CCC[C@H]3C(=O)N2C)cc1 (stereo not given in full) (H-[Lac][X58]T[X59]LP[NMeY](Me); ester 3-C)" recorded_result="> 12.5 µM"
